target: UniProtKB P40763; assay: Inhibition of STAT3 Y705 phosphorylation in human U266 cells by Western blot analysis
Sequence (P40763 whole entry): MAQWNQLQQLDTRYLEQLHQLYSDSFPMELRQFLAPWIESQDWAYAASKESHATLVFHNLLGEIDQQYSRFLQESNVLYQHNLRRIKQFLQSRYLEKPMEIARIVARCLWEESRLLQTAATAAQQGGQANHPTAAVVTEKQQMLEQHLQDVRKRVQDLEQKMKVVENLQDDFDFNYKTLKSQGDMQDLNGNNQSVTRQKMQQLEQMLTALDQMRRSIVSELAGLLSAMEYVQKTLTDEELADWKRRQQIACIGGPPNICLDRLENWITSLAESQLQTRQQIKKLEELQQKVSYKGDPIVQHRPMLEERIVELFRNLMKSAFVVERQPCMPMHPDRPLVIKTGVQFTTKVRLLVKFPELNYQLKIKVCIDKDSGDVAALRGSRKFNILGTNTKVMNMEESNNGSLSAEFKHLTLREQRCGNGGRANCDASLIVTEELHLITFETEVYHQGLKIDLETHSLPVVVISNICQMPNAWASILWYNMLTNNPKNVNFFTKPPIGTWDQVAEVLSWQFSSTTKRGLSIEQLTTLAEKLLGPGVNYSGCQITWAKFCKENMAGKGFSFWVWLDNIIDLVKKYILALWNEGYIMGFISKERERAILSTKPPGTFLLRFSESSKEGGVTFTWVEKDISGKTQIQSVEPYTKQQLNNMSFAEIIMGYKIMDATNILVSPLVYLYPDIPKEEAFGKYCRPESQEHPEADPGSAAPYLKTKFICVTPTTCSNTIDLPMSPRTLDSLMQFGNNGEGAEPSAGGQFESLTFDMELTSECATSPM
REPORTED_ENDPOINT: EC50

QUERY: Which EC50 is reported for this compound? `N#Cc1c(F)c(F)c(-n2cc(C(=O)OCc3ccccc3)c(=O)c3cc(F)c(F)c(F)c32)c(F)c1F`
RESULT: 130 nM

QUERY: Which EC50 is reported for this compound? `CCOC(=O)c1cn(-c2c(F)c(F)c(C#N)c(F)c2F)c2c(F)c(F)c(F)cc2c1=O`
RESULT: 170 nM

QUERY: Which EC50 is reported for this compound? `CCOC(=O)c1cn(-c2c(F)c(F)c(F)c(F)c2F)c2c(F)c(F)c(F)c(F)c2c1=O`
RESULT: 4600 nM

QUERY: Which EC50 is reported for this compound? `O=C(O)c1cn(-c2c(F)c(F)c(F)c(F)c2F)c2c(F)c(F)c(F)c(F)c2c1=O`
RESULT: 46000 nM

QUERY: Which EC50 is reported for this compound? `N#Cc1c(F)c(F)c(-n2cc(C(=O)NCc3ccc(F)cc3)c(=O)c3cc(F)c(F)c(F)c32)c(F)c1F`
RESULT: 200 nM
